- Target Entity: MBP-cTlp1 (Azospirillum brasilense, UniProt Q64I05, R562A)
- Sequence (Q64I05 344-660 R562A): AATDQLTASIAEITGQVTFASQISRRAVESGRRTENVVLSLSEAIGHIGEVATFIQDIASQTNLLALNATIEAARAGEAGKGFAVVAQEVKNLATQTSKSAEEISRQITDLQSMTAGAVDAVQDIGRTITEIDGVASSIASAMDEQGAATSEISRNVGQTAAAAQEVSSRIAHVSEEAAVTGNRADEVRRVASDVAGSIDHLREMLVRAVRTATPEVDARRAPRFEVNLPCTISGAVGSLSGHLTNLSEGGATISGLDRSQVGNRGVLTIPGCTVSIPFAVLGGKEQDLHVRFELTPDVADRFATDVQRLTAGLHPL
- Experiment Notes: equilibrium dialysis, HPLC quantification
Quantity Name: pKd
API: returns pKd as number; meaning -log10 of concentration in mol/L.

### Prompt Which pKd reading was recorded for the compound Nc1nc2c(ncn2[C@@H]2O[C@@H]3CO[P@](=O)(O)O[C@H]4[C@@H](O)[C@H](n5cnc6c(=O)[nH]c(N)nc65)O[C@@H]4CO[P@](=O)(O)O[C@H]3[C@H]2O)c(=O)[nH]1 [c-di-GMP] ?
### Response 4.66

====

- Target Entity: MBP-cTlp1 (Azospirillum brasilense)
Quantity Name: pKd
API: returns pKd as number; meaning -log10 of concentration in mol/L.

### Prompt Which measured pKd belongs to Nc1nc2c(ncn2[C@@H]2O[C@@H]3CO[P@](=O)(O)O[C@H]4[C@@H](O)[C@H](n5cnc6c(=O)[nH]c(N)nc65)O[C@@H]4CO[P@](=O)(O)O[C@H]3[C@H]2O)c(=O)[nH]1 , tested on MBP-cTlp1 (Azospirillum brasilense)?
### Response 5.16
